test system: JAWSII cells; test: RT-qPCR of transcription factor mRNA after DP7, with or without chemical inhibitors; type: cell-based, mouse; details: pretreatment 1 h at 10 μM (BIBR796 5 μM) or PTX 200 ng/ml 3 h, then DP7 30 min, compared to DP7 alone
result_type: effect of inhibitor on DP7-induced mRNA expression of transcription factors

smiles_code: O=C1NC(=O)/C(=C\c2ccc3nccnc3c2)S1
system: JAWSII cells
recorded_measurement: significantly suppressed
--
smiles_code: Cn1cnc2c(F)c(Nc3ccc(Br)cc3Cl)c(C(=O)NOCCO)cc21
system: JAWSII cells
recorded_measurement: significantly suppressed
--
smiles_code: CN1CCN(c2nc(C3=C(c4c[nH]c5ccccc45)C(=O)NC3=O)c3ccccc3n2)CC1
system: JAWSII cells
recorded_measurement: significantly suppressed
